# Target or system: T1, 22 amino acid CALRmut-specific peptide (acetylation of the terminal amino-group; C-terminal -OH group)
# T1 construct: also called 22aa CALRmut peptide; CALRmut target peptide
# T1 peptide: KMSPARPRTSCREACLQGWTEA
# Method summary: phage ELISA; QC ELISA of soluble Fab-AP

| Binder | binding result |
| --- | --- |
| Clone 17 (Fab, V domains shown, Rabbit/human chimeric Fab (human CH1, CK) on phage; also soluble Fab-AP) VH: QEQLEESGGRLVTPGTPLTLTCTVSGIDLSNNAMSWVRQAPGKGLEYIGVIGNTGTTYYANWAKGRFTISKTSSATVDLKMTSLTTDDTATYFCVRGPPSYSNSVKNIWGPGTLVTVSS VL: DVMLTQTPSSVSAAVGGTVTINCQSSQSVYDKNWLSWLQQKPGQPPSRLIYDASKLESGVPSRFSGSGSGTQFTLTISGVQCDDAATYYCAGGFTGNVYTFGGGTKVVVK | binds |
